Reference source for all entries: patent US10239835B2

# study_system: HEK293 cells expressing NR1/NR2B (Homo sapiens (Human))
# method: NR2B NAM Assay (FDSS Ca2+ influx cell assay)
# Assay type: cell-based
# measurement_parameters: Ca2+ influx inhibition relative to MK801; 3 μM glutamate, 3 μM glycine, 1 mM Ca2+; read-out: NR2B NAM IC50
experimental_readout: IC50 (nM)
The figure you give is taken to be in nM; do not add the unit.

Consider the reported IC50 for these compounds:
Query: IC50; subject: Oc1ccc(C(O)CN2C[C@H]3C[C@H](Oc4ccccc4)C[C@H]3C2)nc1 (stereo partly shown)
5.72

Next: O=C(CN1C[C@H]2C[C@H](Oc3ccc(F)cc3)C[C@H]2C1)c1ccc(O)cn1
699

Next: Oc1ccc(C(O)CN2C[C@H]3C[C@@H](Oc4ccc(F)cc4)C[C@H]3C2)cc1F (stereo partly shown)
30.5

Continue with the compound presented below.
Query: IC50; subject: O=C(CN1C[C@H]2C[C@H](Oc3cnccn3)C[C@H]2C1)c1ccc(O)cc1
149

* * *

# study_system: HEK293 cells expressing NR1/NR2B (Homo sapiens (Human), UniProt Q05586+Q13224)
# Sequence (Q13224 27-1484, other chains not shown): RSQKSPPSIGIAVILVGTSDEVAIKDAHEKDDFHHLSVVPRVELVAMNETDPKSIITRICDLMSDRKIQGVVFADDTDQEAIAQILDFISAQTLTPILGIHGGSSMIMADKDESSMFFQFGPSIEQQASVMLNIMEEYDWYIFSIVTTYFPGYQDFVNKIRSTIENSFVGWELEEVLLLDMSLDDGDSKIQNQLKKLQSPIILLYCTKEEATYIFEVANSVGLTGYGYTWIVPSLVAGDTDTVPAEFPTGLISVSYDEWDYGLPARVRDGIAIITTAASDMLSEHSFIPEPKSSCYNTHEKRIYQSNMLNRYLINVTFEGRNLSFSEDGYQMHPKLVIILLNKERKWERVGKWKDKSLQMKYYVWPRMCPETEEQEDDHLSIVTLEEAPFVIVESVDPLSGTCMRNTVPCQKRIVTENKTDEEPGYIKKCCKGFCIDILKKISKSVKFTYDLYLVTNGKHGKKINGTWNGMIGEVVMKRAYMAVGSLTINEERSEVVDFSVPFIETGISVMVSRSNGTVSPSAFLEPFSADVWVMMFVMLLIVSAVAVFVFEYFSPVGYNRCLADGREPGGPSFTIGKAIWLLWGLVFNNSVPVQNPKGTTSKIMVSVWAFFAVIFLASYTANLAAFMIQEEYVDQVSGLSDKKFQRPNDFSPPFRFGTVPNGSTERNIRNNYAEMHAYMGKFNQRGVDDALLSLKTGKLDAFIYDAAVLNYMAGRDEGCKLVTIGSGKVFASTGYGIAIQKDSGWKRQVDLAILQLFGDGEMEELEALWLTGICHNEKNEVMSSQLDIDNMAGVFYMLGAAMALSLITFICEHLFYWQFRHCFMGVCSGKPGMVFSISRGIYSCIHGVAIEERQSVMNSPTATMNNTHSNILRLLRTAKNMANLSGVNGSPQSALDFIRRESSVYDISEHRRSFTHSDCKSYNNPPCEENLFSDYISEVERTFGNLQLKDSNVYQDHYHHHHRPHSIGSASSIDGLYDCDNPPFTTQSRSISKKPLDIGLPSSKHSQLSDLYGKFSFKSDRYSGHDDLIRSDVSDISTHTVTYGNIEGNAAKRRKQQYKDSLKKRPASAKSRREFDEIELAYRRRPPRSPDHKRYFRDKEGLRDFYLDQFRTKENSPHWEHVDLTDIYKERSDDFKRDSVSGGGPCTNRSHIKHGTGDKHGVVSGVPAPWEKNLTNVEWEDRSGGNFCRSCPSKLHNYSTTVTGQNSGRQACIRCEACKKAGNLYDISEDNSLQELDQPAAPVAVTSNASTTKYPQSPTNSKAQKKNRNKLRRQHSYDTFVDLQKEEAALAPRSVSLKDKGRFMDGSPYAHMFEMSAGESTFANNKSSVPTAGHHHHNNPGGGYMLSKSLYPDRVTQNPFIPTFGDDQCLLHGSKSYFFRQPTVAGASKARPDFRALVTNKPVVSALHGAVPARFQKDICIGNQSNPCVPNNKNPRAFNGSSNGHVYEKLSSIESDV
# method: NR2B NAM Assay (FDSS Ca2+ influx cell assay)
# measurement_parameters: NR2B NAM assay, class of inhibitory concentration; read-out: Activity Category
Below, each of the compounds is paired with its reported IC50 value.

Consider the reported IC50 for these compounds:
Query: IC50; subject: COc1ccc(F)c(O[C@H]2C[C@@H]3CN(CC(=O)c4ccc(O)cc4)C[C@@H]3C2)c1
100 to 1000 nM

Next: O=C(CN1C[C@H]2C[C@H](Oc3ccc(F)cc3)C[C@H]2C1)c1cnn(Cc2ccccc2)c1
> 10000 nM

Further cases:
Query: IC50; subject: Oc1ccc(C(O)CN2C[C@H]3C[C@H](Oc4cccnc4F)C[C@H]3C2)cc1F (some centres unmarked)
< 100 nM

Next: COc1ccc(O[C@@H]2C[C@@H]3CN(CC(O)c4ccc(O)cc4)C[C@@H]3C2)cc1 (some centres unmarked)
100 to 1000 nM

Next: Oc1ccc(C(O)CN2C[C@H]3C[C@@H](Oc4ccc(F)cc4)C[C@H]3C2)cc1 (some centres unmarked)
< 100 nM

Next: COc1ccc(F)c(O[C@H]2C[C@@H]3CN(CC(O)c4ccc(O)cc4)C[C@@H]3C2)c1 (some centres unmarked)
100 to 1000 nM

Next: COc1ccc(F)c(O[C@H]2C[C@@H]3CN(CC(O)c4ccc(O)cn4)C[C@@H]3C2)c1 (some centres unmarked)
100 to 1000 nM

Next: COc1ccc(O[C@@H]2C[C@@H]3CN(CC(O)c4ccc(O)c(F)c4)C[C@@H]3C2)cc1 (some centres unmarked)
< 100 nM

* * *

# study_system: HEK293 cells expressing NR1/NR2B (Homo sapiens (Human), UniProt Q05586+Q13224)
# method: NR2B NAM Assay (FDSS Ca2+ influx cell assay)
# measurement_parameters: NR2B NAM assay, class of inhibitory concentration; read-out: Activity Category
pIC50: −log10 of the molar value.
experimental_readout: pIC50

Query: pIC50; subject: COc1cccc(O[C@H]2C[C@@H]3CN(CC(=O)c4ccc(O)cc4)C[C@@H]3C2)c1F
6.00 to 7.00

Next: Oc1ccc(C(O)CN2C[C@H]3C[C@H](Sc4ccc(F)cc4)C[C@H]3C2)cc1 (stereo partly shown)
> 7.00

Next: O=C(CN1C[C@H]2C[C@H](Oc3ccc(F)cc3F)C[C@H]2C1)c1ccc(O)cc1
> 7.00

Next: Cc1ncccc1O[C@H]1C[C@@H]2CN(CC(=O)c3ccc(O)cc3)C[C@@H]2C1
6.00 to 7.00
